# Target Under Test: HSD17B2 (Homo sapiens (Human))
# Sequence (P37059 whole entry): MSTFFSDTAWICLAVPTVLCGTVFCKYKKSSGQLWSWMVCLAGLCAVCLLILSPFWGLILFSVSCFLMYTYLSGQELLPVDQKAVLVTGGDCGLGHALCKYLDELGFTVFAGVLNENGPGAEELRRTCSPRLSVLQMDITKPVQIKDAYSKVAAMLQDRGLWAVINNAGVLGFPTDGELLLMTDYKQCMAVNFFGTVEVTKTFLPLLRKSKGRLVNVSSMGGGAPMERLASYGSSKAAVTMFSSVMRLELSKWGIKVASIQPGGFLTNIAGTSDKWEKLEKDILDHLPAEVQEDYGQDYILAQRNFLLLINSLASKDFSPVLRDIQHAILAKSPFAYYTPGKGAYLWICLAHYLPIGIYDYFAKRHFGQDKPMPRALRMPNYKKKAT
# Protocol: HSD17B2 activity via detection of NADH product (NAD-Glo luminescence)
# Format: biochemical
# Measurement Conditions: selectivity for HSD17B13 over HSD17B2
Value Type: HSD17B2 fold selectivity (fold)

{"Item Smiles": "O=C(Nc1sc(-c2ccccc2)nc1C(=O)NCc1ccccc1C(F)(F)F)c1cc(Cl)c(O)c(Cl)c1", "Output Unit": "fold", "HSD17B2 fold selectivity": 204}

1: N#Cc1cccc(-c2nc(C(=O)NCc3ccccc3C(F)(F)F)c(NC(=O)c3cc(Cl)c(O)c(Cl)c3)s2)c1
2: O=C(Nc1sc(-c2ccccc2Cl)nc1C(=O)NCc1ccccc1C(F)(F)F)c1cc(Cl)c(O)c(Cl)c1
3: CS(=O)(=O)c1ccc(-c2nc(C(=O)NCc3ccccc3C(F)(F)F)c(NC(=O)c3cc(Cl)c(O)c(Cl)c3)s2)cc1
[in] rank_up(items): orders items by reported HSD17B2 fold selectivity in ascending numerical order. Respond with an ordered listing of the labels, as requested.
[out] 2, 3, 1

P: CS(=O)(=O)c1ccccc1-c1nc(C(=O)NCc2ccccc2C(F)(F)F)c(NC(=O)c2cc(Cl)c(O)c(Cl)c2)s1
Q: O=C(Nc1sc(-c2cccnc2)nc1C(=O)NCc1ccccc1C(F)(F)F)c1cc(Cl)c(O)c(Cl)c1
R: O=C(Nc1sc(-c2ccncc2)nc1C(=O)NCc1ccccc1C(F)(F)F)c1cc(Cl)c(O)c(Cl)n1
S: O=C(Nc1sc(-c2ccccc2F)nc1C(=O)NCc1ccccc1C(F)(F)F)c1cc(Cl)c(O)c(Cl)c1
[in] List items by HSD17B2 fold selectivity in falling order. Respond with an ordered listing of the labels, as requested.
[out] S, R, Q, P

----------
# Target Under Test: HSD17B13 (Homo sapiens (Human), UniProt Q7Z5P4)
# Sequence (Q7Z5P4 20-300): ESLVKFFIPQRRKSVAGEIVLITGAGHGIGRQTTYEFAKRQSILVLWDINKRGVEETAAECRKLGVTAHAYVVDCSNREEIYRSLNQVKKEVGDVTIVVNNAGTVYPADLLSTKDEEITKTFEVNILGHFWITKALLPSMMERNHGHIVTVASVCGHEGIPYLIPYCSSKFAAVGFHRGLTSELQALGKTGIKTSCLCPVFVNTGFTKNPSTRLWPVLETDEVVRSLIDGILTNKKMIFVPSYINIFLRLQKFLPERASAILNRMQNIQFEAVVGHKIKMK
# Protocol: LC/MS estrone detection assay for HSD17B13 activity (estradiol to estrone)
# Format: biochemical
# Measurement Conditions: estradiol substrate, LC-MS/MS estrone detection
pIC50: −log10 of the molar value.
Value Type: pIC50

{"Item Smiles": "O=C(Nc1nn(C2CC2)cc1C(=O)NCc1ccccc1C(F)(F)F)c1cc(Cl)c(O)c(Cl)n1", "Target Under Test": "HSD17B13 (Homo sapiens (Human), UniProt Q7Z5P4)", "Reported Value": "5.00 to 6.00"}
{"Item Smiles": "O=C(Nc1scnc1C(=O)NC1CCC2(CC1)CNC2)c1cc(Cl)c(O)c(Cl)n1", "Target Under Test": "HSD17B13 (Homo sapiens (Human), UniProt Q7Z5P4)", "Reported Value": "< 5.00"}
{"Item Smiles": "Cn1cc(C(=O)NCc2ccccc2C(F)(F)F)c(NC(=O)c2cc(Cl)c(O)c(Cl)c2)n1", "Target Under Test": "HSD17B13 (Homo sapiens (Human), UniProt Q7Z5P4)", "Reported Value": "6.30 to 7.00"}
{"Item Smiles": "O=C(Nc1scnc1C(=O)NCc1c(F)cccc1F)c1cc(Cl)c(O)c(Cl)n1", "Target Under Test": "HSD17B13 (Homo sapiens (Human), UniProt Q7Z5P4)", "Reported Value": "6.30 to 7.00"}
{"Item Smiles": "CN(Cc1ccccc1C(F)(F)F)C(=O)c1ncsc1NC(=O)c1cc(Cl)c(O)c(Cl)n1", "Target Under Test": "HSD17B13 (Homo sapiens (Human), UniProt Q7Z5P4)", "Reported Value": "6.30 to 7.00"}

[in] For `O=C(Nc1scnc1C(=O)N1CCC(C(F)(F)F)CC1)c1cc(Cl)c(O)c(Cl)n1` , what is its reported pIC50?
[out] 6.00 to 6.30

[in] For `O=C(Nc1ccc(F)c2nnn(Cc3ccccc3C(F)(F)F)c(=O)c12)c1cc(Cl)c(O)c(Cl)c1` , what is its reported pIC50?
[out] ≥ 7.00

[in] For `O=C(Nc1ncc(C(=O)NCc2ccccc2C(F)(F)F)s1)c1cc(Cl)c(O)c(Cl)n1` , what is its reported pIC50?
[out] 5.00 to 6.00

meta.source: patent US20250100993A1
